Tested on: human cervical cancer cells HeLa
assay-protocol: Anti-proliferative assay (MTT or resazurin), HeLa
Format: cell-based
assay-conditions: 48 h
measured-metric: pIC50
Just so you know, pIC50 here is -log10 of the concentration in molar units; reply with that number alone.

Which pIC50 value belongs to C[C@H](NC(=O)[C@H](Cc1ccc2ccccc2c1)NC(=O)c1ccco1)C(=O)N[C@@H](Cc1ccccc1)C(N)=O [Conjugate 4, 2-Fur^4-L-2-Nal^3-L-Ala^2-L-Phe^1-CONH2] ?
6.55
